Molecular target: human CD33 S164A (human, UniProt P20138 18-364)
Sequence (P20138 18-364 S164A limits assumed): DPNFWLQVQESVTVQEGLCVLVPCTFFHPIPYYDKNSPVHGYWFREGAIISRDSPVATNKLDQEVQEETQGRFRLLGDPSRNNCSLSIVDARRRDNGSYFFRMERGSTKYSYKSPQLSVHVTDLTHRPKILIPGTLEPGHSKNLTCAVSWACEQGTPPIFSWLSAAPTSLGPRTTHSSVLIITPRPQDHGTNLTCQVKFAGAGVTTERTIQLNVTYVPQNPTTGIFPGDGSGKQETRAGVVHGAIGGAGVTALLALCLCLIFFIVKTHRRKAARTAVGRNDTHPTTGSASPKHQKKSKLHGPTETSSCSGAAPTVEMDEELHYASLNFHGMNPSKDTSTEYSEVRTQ
Experiment: flow cytometry on HEK293-T, alanine scan
reportedProperty: Mean % WT Binding (% WT binding)
// note: answer is a bare numeric in % WT binding

Noted for Refmab #2 (antibody, V domains shown, The alanine scan used IgG or Fab) VH: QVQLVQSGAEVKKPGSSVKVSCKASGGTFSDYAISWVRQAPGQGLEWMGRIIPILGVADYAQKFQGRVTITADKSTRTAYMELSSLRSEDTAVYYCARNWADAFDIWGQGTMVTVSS VL: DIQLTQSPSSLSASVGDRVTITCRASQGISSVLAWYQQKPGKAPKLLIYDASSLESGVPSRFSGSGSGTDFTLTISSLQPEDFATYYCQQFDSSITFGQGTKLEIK : its Mean % WT Binding reads 117

The binder listed as Refmab #3 (antibody, V domains shown, The alanine scan used IgG or Fab) VH: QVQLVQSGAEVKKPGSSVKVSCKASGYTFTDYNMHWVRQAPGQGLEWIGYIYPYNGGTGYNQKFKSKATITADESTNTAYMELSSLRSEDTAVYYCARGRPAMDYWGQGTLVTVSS VL: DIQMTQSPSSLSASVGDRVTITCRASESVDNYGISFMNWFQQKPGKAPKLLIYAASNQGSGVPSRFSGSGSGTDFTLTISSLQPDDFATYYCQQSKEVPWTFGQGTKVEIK has a reported Mean % WT Binding of 96.3

Entry under test: Refmab #4 (antibody, V domains shown, The alanine scan used IgG or Fab) VH: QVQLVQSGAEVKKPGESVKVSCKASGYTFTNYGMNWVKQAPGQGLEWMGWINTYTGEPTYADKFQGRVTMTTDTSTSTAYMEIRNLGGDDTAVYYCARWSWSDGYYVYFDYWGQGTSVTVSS VL: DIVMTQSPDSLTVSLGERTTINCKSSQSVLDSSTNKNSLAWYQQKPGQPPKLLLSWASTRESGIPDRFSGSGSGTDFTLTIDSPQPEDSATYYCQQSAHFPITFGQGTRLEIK . Its Mean % WT Binding was 112

Field Mean % WT Binding (entry Refmab #1 (antibody, V domains shown, The alanine scan used IgG or Fab; also called hP67.6) VH: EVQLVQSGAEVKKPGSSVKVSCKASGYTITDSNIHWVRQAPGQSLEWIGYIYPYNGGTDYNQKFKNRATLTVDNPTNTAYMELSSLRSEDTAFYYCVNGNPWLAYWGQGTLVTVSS VL: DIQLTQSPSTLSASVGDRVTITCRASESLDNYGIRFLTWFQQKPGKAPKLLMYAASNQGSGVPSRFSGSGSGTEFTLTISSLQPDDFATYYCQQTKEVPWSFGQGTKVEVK ) reads 101
